Experiment: Primary qHTS for delayed death inhibitors of the malarial parasite plastid, 48 hour incubation; also: potency is read from the fitted curve at half-maximal effect
Details: P. falciparum luciferase growth in erythrocytes; series mostly up to 28.7 µM
Among all 310,000 compounds or so, about 18,000 (5.8%) were called active. Not shown: some 22% with an inconclusive outcome. The sample as a whole holds a higher share of actives than the screen did.
result.type: Potency

Example molecules with recorded Potency:
- molecule: "O=C(Nc1ccc(OCC(=O)N2CCOCC2)cc1)c1cc(F)c(F)cc1Cl"
  Potency: "inactive"
- molecule: "CC1Cc2ccccc2N1C(=O)c1cc2sccc2n1Cc1ccccc1 (stereo unspecified)"
  Potency: "11.7 µM (active)"
- molecule: "CN(c1ccccc1)S(=O)(=O)c1cccc(NC(=O)Cc2ccc(Cl)cc2)c1"
  Potency: "11.7 µM (active)"
- molecule: "CN(C)S(=O)(=O)c1cccc(NC(=O)Cc2ccsc2)c1"
  Potency: "inactive"
- molecule: "O=C(c1cc2sccc2n1Cc1ccc(F)cc1)N1CCc2ccccc21"
  Potency: "14.7 µM (active)"

Then this molecule:
# input Look at this molecule and give its reported Potency. CC(=O)N1c2ccc(S(=O)(=O)N(C)CC(=O)N(C)Cc3ccccc3)cc2CC1C (stereo unspecified)
# output inactive
